All values here come from ChEMBL document CHEMBL1158607.

- System Name: Muscarinic acetylcholine receptor M4 (Homo sapiens, UniProt P08173)
- Sequence (P08173 whole entry): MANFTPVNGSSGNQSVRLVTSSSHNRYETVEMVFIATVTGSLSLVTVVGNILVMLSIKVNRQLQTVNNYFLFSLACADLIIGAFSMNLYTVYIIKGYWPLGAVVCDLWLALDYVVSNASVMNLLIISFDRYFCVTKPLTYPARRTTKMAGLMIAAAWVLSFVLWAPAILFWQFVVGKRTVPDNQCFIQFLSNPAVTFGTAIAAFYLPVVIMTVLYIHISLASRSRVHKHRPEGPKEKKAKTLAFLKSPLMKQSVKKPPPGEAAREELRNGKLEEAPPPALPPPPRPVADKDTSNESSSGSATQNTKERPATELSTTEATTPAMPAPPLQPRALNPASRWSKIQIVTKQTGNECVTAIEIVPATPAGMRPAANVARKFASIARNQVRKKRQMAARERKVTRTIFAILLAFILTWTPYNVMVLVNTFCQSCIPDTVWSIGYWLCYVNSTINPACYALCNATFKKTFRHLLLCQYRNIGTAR
- Assay Protocol: Inhibition of human muscarinic M4 receptor expressed in CHO cells
Parameter Measured: pIC50
Numbers only, as −log10 of the molar value.

- CC1CNCCC1CNC(=O)c1ccccc1-c1cccc(Cl)c1 (centres undefined): 5.50
- O=C(NCC1CCNCC1)c1ccccc1-c1cccc(Cl)c1: 5.30
- O=C(NCC1CCNCC1)c1ccccc1-c1cc(Cl)ccc1F: 5.80

Problem: Quick one: pIC50 for Cc1ccc(-c2ccccc2C(=O)NCC2CCNCC2)cc1Cl ?
Result: 6.40

* * *

Provide the reported pIC50 of each item.
- System Name: Muscarinic acetylcholine receptor M3 (Homo sapiens, UniProt P20309)
- Sequence (P20309 whole entry): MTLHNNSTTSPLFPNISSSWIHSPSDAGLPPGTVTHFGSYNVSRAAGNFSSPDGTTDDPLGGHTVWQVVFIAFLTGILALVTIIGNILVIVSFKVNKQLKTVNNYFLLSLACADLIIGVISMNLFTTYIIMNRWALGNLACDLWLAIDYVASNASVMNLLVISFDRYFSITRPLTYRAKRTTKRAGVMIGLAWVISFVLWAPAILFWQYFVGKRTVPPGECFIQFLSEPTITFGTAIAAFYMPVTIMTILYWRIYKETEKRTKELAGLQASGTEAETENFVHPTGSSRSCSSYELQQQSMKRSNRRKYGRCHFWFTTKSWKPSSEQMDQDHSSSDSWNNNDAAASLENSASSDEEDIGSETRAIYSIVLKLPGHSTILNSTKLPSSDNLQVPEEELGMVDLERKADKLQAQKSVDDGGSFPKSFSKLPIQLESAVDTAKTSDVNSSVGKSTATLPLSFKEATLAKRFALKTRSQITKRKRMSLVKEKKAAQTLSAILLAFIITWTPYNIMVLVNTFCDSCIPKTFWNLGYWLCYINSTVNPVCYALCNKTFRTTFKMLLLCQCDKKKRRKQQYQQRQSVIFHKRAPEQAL
- Assay Protocol: Inhibition of human muscarinic M3 receptor expressed in CHO cells
Answers are plain numbers, as −log10 of the molar value.

* O=C(NCC1CCNCC1)c1ccccc1-c1cccc(Cl)c1 | 5.40
* CC1CNCCC1CNC(=O)c1ccccc1-c1cccc(Cl)c1 (centres undefined) | 5.90
* O=C(NCC1CCNCC1)c1ccccc1-c1cc(Cl)ccc1F | 6.00

// next entry
Problem: Quick one: pIC50 for Cc1ccc(-c2ccccc2C(=O)NCC2CCNCC2)cc1Cl ?
Result: 6.60

* * *

Provide the reported IC50 of each item.
- System Name: Muscarinic acetylcholine receptor M5 (Homo sapiens, UniProt P08912)
- Sequence (P08912 whole entry): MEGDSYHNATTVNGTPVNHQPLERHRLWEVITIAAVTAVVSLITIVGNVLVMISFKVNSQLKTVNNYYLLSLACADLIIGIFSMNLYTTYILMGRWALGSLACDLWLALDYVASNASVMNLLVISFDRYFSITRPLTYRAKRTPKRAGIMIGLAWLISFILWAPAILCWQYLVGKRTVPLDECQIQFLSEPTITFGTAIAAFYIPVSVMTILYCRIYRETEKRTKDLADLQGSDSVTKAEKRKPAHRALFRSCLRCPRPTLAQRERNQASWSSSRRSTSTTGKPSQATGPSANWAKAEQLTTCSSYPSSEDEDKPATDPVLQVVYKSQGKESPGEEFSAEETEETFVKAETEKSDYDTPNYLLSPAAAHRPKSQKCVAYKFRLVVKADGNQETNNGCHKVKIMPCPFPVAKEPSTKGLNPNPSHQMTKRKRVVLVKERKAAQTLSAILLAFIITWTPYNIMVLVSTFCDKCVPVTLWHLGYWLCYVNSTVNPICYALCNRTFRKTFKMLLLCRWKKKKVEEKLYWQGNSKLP
- Assay Protocol: Inhibition of human muscarinic M5 receptor expressed in CHO cells
Give bare numbers, in µM.

• O=C(NCC1CCNCC1)c1ccccc1-c1cc(Cl)ccc1F = 5.01

// next entry
Problem: Kindly state the measured IC50 obtained for Cc1ccc(-c2ccccc2C(=O)NCC2CCNCC2)cc1Cl with Muscarinic acetylcholine receptor M5 (Homo sapiens, UniProt P08912).
Result: 0.794

* * *

- System Name: Muscarinic acetylcholine receptor M2 (Homo sapiens)
- Sequence (P08172 whole entry): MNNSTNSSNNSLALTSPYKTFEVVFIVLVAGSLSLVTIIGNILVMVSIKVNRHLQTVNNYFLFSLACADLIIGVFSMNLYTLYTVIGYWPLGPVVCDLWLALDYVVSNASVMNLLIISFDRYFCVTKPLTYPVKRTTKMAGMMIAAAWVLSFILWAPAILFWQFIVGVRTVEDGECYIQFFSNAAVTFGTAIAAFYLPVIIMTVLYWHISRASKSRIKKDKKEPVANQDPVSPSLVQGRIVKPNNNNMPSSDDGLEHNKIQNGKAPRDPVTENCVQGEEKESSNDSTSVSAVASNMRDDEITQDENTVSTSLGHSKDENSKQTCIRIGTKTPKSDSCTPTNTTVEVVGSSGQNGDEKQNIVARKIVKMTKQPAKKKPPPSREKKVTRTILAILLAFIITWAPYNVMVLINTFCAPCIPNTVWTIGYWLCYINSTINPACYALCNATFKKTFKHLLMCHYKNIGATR
- Assay Protocol: Inhibition of human muscarinic M2 receptor expressed in CHO cells
Parameter Measured: pIC50
Answers are plain numbers, as −log10 of the molar value.

Example compounds with recorded pIC50:
* CC1CNCCC1CNC(=O)c1ccccc1-c1cccc(Cl)c1 (centres undefined) | 5.40
* O=C(NCC1CCNCC1)c1ccccc1-c1cccc(Cl)c1 | 5.10
* Cc1ccc(-c2ccccc2C(=O)NCC2CCNCC2)cc1Cl | 6.40

Problem: Quick one: pIC50 for O=C(NCC1CCNCC1)c1ccccc1-c1cc(Cl)ccc1F ?
Result: 5.70

* * *

- System Name: Muscarinic acetylcholine receptor M1 (Homo sapiens) (UniProt P11229)
- Assay Protocol: Intrinsic activity at human muscarinic M1 receptor expressed in CHO cells assessed as effect on acetylcholine-induced intracellular calcium level by FLIPR assay relative to acetylcholine
- Type: functional, cell-based
Quick rule for you: Intrinsic activity under 80% gets true, anything else gets false.

Some entries whose results are on file:
• Cc1ccc(-c2ccccc2C(=O)NCC2CCNCC2)cc1Cl = false
• O=C(NCC1CCNCC1)c1ccccc1-c1ccc(F)c(Cl)c1 = true
• CN(CC1CCNCC1)C(=O)c1ccccc1-c1cccc(Cl)c1 = true
• Cc1c(Cl)cccc1-c1ccccc1C(=O)NCC1CCNCC1 = true
• O=C(NCC1CCNCC1)c1ccccc1-c1nc(Cl)cs1 = false
• O=C(NCC1CCNCC1)c1ccccc1-c1cccc(Cl)c1 = false
• O=C(NCC1CCNCC1)c1ccccc1-c1cc(Cl)ccc1F = false
• CC1CNCCC1CNC(=O)c1ccccc1-c1cccc(Cl)c1 (configuration not stated) = false
• Cc1ccc(Cl)cc1-c1ccccc1C(=O)NCC1CCNCC1 = false
• O=C(NCC1CCNCC1)c1ccccc1-c1cccc(Cl)c1F = true

Problem: Please check: Intrinsic activity for O=C(NCC1CCNCC1)c1ccccc1-c1cc(Cl)cc(Cl)c1 , strictly under 80% or not?
Result: true

Problem: Please check: Intrinsic activity for O=C(NCC12CCN(CC1)CC2)c1ccccc1-c1nc(Cl)cs1 , strictly under 80% or not?
Result: true

* * *

- System Name: Muscarinic acetylcholine receptor M1 (Homo sapiens)
- Sequence (P11229 whole entry): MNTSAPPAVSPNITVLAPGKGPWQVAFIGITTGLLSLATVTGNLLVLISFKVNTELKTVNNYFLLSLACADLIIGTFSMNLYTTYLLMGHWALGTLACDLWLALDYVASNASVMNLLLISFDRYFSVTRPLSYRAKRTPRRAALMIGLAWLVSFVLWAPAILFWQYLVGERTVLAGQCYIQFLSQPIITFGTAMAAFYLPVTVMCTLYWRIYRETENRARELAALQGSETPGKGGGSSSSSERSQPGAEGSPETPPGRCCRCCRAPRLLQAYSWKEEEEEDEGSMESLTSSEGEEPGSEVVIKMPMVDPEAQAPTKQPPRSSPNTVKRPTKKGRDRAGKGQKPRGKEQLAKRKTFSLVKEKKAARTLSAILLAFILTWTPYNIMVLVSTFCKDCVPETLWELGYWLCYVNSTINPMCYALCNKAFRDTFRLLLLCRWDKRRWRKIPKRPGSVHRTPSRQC
- Assay Protocol: Agonist activity at human muscarinic M1 receptor expressed in CHO cells assessed as effect on acetylcholine-induced intracellular calcium level by FLIPR assay
pEC50: −log10 of the molar value.
Provide the reported pEC50 of each item.

* O=C(NCC1CCNCC1)c1ccccc1-c1ccc(F)cc1 | < 5.00
* O=C(NCC1CCNCC1)c1ccccc1-c1cccc(Cl)c1F | 6.00
* O=C(NCC1CCNCC1)c1ccccc1-c1cccc(-c2ccccc2)c1 | < 5.00
* O=C(NCC1CCNCC1)c1ccccc1-c1cccc(C(F)(F)F)c1 | < 5.00
* CN(C)C(=O)c1cccc(-c2ccccc2C(=O)NCC2CCNCC2)c1 | < 5.00

Batch of 5 molecules: report pEC50 for each.
1. O=C(NCC1CCNCC1)c1ccccc1-c1cccc(OC(F)(F)F)c1
2. O=C(NCC1CCCNC1)c1ccccc1-c1nc(Cl)cs1 (stereo not given)
3. O=C(NCC1CCNCC1)c1ccccc1-c1ccc2ccccc2c1
4. CC1CC(CNC(=O)c2ccccc2-c2cccc(Cl)c2)CCN1 (stereo not given)
5. Cc1ccc(-c2ccccc2C(=O)NCC2CCNCC2)cc1Cl

Result:
1. < 5.00
2. < 5.00
3. < 5.00
4. < 5.00
5. 7.90
